Test: Stability of analytes in rat plasma (auto-sampler, freeze-thaw, room temperature, long-term)
Settings: 12.5 ng/mL, room temperature 24 h
measurementName: Room temperature for 24 h Accuracy (%)

smiles	measurementName	resultNumber
O=C(O)C=Cc1ccc(O)cc1	Room temperature for 24 h Accuracy (%)	96.1
O=C1C[C@@H](c2ccc(O[C@@H]3O[C@H](CO)[C@@H](O)[C@H](O)[C@H]3O)cc2)Oc2cc(O)ccc21	Room temperature for 24 h Accuracy (%)	94.4
COc1ccc(-c2coc3cc(O[C@@H]4O[C@H](CO)[C@@H](O)[C@H](O)[C@H]4O)ccc3c2=O)cc1	Room temperature for 24 h Accuracy (%)	109.0
O=c1cc(-c2ccc(O)cc2)oc2c([C@@H]3O[C@H](CO)[C@@H](O)[C@H](O)[C@H]3O)c(O)cc(O)c12	Room temperature for 24 h Accuracy (%)	105.0
C[C@@H]1O[C@@H](Oc2c(-c3ccc(O)c(O)c3)oc3cc(O)cc(O)c3c2=O)[C@H](O)[C@H](O)[C@H]1O	Room temperature for 24 h Accuracy (%)	87.1

----------
Experiment: Stability of analytes in rat plasma (auto-sampler, freeze-thaw, room temperature, long-term)
Conditions: 100 ng/mL, room temperature 24 h
measurementName: Room temperature for 24 h Accuracy (%)

compound	resultNumber
O=C(O)C=Cc1ccc(O)cc1	98.7
CC(C)=CCC[C@](C)(O)[C@H]1CC[C@]2(C)[C@@H]1[C@H](O)C[C@@H]1[C@@]3(C)CC[C@H](O)C(C)(C)[C@@H]3[C@@H](O[C@@H]3O[C@H](CO)[C@@H](O)[C@H](O)[C@H]3O)C[C@]12C [ginsenoside Rh1]	96.5
COc1ccc([C@@H]2CC(=O)c3c(O)cc(O[C@@H]4O[C@H](CO[C@@H]5O[C@@H](C)[C@H](O)[C@@H](O)[C@H]5O)[C@@H](O)[C@H](O)[C@H]4O)cc3O2)cc1O	92.3
CC(C)=CCC[C@](C)(O)[C@H]1CC[C@]2(C)[C@@H]1[C@H](O)C[C@@H]1[C@@]3(C)CC[C@H](O)C(C)(C)[C@@H]3[C@@H](O[C@@H]3O[C@H](CO)[C@@H](O)[C@H](O)[C@H]3O[C@@H]3O[C@H](CO)[C@@H](O)[C@H](O)[C@H]3O)C[C@]12C [ginsenoside Rf]	96.8
C[C@]1(OC(=O)/C=C/c2ccccc2)C[C@@H](O)[C@]2(O)C=CO[C@@H](O[C@@H]3O[C@H](CO)[C@@H](O)[C@H](O)[C@H]3O)[C@@H]21 [harpagoside]	100.0
O=C1C[C@@H](c2ccc(O)cc2)Oc2cc(O)cc(O)c21	92.9
O=C(O)[C@H]1O[C@@H](Oc2cc3oc(-c4ccc(O)cc4)cc(=O)c3c(O)c2O)[C@H](O)[C@@H](O)[C@@H]1O	101.0

----------
Assay: Stability of analytes in rat plasma (auto-sampler, freeze-thaw, room temperature, long-term)
Conditions: 12.5 ng/mL, autosampler 24 h
measurementName: Autosampler for 24 h Accuracy (%)

compound	resultNumber
O=c1cc(-c2ccccc2)oc2cc(O)c(O)c(O)c12 [baicalein]	97.0
O=C(/C=C/c1ccc(O)c(O)c1)O[C@H]1[C@H](O)C[C@](O)(C(=O)O)C[C@H]1O [cryptochlorogenic acid]	94.6
COc1cc(/C=C/C(=O)O)ccc1O [ferulic acid]	84.5
